Source listed as ChEMBL document CHEMBL1134903.

System: Staphylococcus aureus
Experiment: Effective dose required to inhibit Staphylococcus aureus intraperitoneal (IP) infection model
Assay type: functional
Please provide measured ED50 for the entries that follow.
Could you give me the number in mg/kg? Just the number is fine.

Which ED50 value belongs to CC[C@H]1OC(=O)[C@H](C)[C@H]2OC3(CCN(C(=O)c4c[nH]c5ccccc45)CC3)O[C@](C)(C[C@@H](C)CN[C@H](C)[C@@H](O)[C@]1(C)O)[C@H](O[C@@H]1O[C@H](C)C[C@H](N(C)C)[C@H]1O)[C@H]2C ?
11

Using the record for CC[C@H]1OC(=O)[C@H](C)[C@H]2OC3(CCN(C(=O)c4ccccn4)CC3)O[C@](C)(C[C@@H](C)CN(C)[C@H](C)[C@@H](O)[C@]1(C)O)[C@H](O[C@@H]1O[C@H](C)C[C@H](N(C)C)[C@H]1O)[C@H]2C , report its ED50.
12

====

Would you mind telling me the reported MIC of each entry?
Tested on: Pasteurella multocida
Assay: Minimum inhibitory concentration against Pasteurella multocida
Assay type: functional
Express it in µg/mL; write the number only.

Which measured MIC value corresponds to CC[C@H]1OC(=O)[C@H](C)[C@H]2OC3(CCN(CCc4cccc(OC)c4)CC3)O[C@](C)(C[C@@H](C)CN(C)[C@H](C)[C@@H](O)[C@]1(C)O)[C@H](O[C@@H]1O[C@H](C)C[C@H](N(C)C)[C@H]1O)[C@H]2C ?
0.03

Need MIC of CC[C@H]1OC(=O)[C@H](C)[C@H]2OC3(CCN(C(=O)c4cc5ccccc5[nH]4)CC3)O[C@](C)(C[C@@H](C)CN[C@H](C)[C@@H](O)[C@]1(C)O)[C@H](O[C@@H]1O[C@H](C)C[C@H](N(C)C)[C@H]1O)[C@H]2C , thanks.
0.1

What value of measured MIC is listed for CC[C@H]1OC(=O)[C@H](C)[C@H]2OC3(CCN(Cc4cccnc4)CC3)O[C@](C)(C[C@@H](C)CN(C)[C@H](C)[C@@H](O)[C@]1(C)O)[C@H](O[C@@H]1O[C@H](C)C[C@H](N(C)C)[C@H]1O)[C@H]2C ?
0.03

Value lookup for MIC; key = CC[C@H]1OC(=O)[C@H](C)[C@H]2OC3(CCNCC3)O[C@](C)(C[C@@H](C)CN(C)[C@H](C)[C@@H](O)[C@]1(C)O)[C@H](O[C@@H]1O[C@H](C)C[C@H](N(C)C)[C@H]1O)[C@H]2C
0.05

====

Test system: Escherichia coli
Test: Minimum inhibitory concentration against Escherichia coli
Assay type: functional
Doc: threshold 2 µg/mL (exclusive). Items with MIC beneath it return class 1; others return class 0.

In the record for CC[C@H]1OC(=O)[C@H](C)[C@H]2OC3(CCN(CCc4ccccc4)CC3)O[C@](C)(C[C@@H](C)CN(C)[C@H](C)[C@@H](O)[C@]1(C)O)[C@H](O[C@@H]1O[C@H](C)C[C@H](N(C)C)[C@H]1O)[C@H]2C , is MIC less than 2 µg/mL?
class 1

Find out if reported MIC for CC[C@H]1OC(=O)[C@H](C)[C@H]2OC3(CCN(C(=O)c4cccc(O)n4)CC3)O[C@](C)(C[C@@H](C)CN[C@H](C)[C@@H](O)[C@]1(C)O)[C@H](O[C@@H]1O[C@H](C)C[C@H](N(C)C)[C@H]1O)[C@H]2C is less than 2 µg/mL
class 0

Is MIC of CC[C@H]1OC(=O)[C@H](C)[C@H]2OC3(CCN(C(=O)c4cc5ccccc5[nH]4)CC3)O[C@](C)(C[C@@H](C)CN[C@H](C)[C@@H](O)[C@]1(C)O)[C@H](O[C@@H]1O[C@H](C)C[C@H](N(C)C)[C@H]1O)[C@H]2C strictly below 2 µg/mL?
class 0

MIC strictly < 2 µg/mL for this molecule? CC[C@H]1OC(=O)[C@H](C)[C@H]2OC3(CCN(C(=O)c4ccc5ccccc5n4)CC3)O[C@](C)(C[C@@H](C)CN[C@H](C)[C@@H](O)[C@]1(C)O)[C@H](O[C@@H]1O[C@H](C)C[C@H](N(C)C)[C@H]1O)[C@H]2C
class 1

Bench note: check whether CC[C@H]1OC(=O)[C@H](C)[C@H]2OC3(CCN(CCc4ccc(Cl)c(Cl)c4)CC3)O[C@](C)(C[C@@H](C)CN(C)[C@H](C)[C@@H](O)[C@]1(C)O)[C@H](O[C@@H]1O[C@H](C)C[C@H](N(C)C)[C@H]1O)[C@H]2C shows MIC below 2 µg/mL
class 0

Problem: For the molecule CC[C@H]1OC(=O)[C@H](C)[C@H]2OC3(CCN(CCc4cccc(OC)c4)CC3)O[C@](C)(C[C@@H](C)CN[C@H](C)[C@@H](O)[C@]1(C)O)[C@H](O[C@@H]1O[C@H](C)C[C@H](N(C)C)[C@H]1O)[C@H]2C , is MIC under 2 µg/mL?
class 1

MIC under 2 µg/mL? Item: CC[C@H]1OC(=O)[C@H](C)[C@H]2OC3(CCN(CCc4ccoc4)CC3)O[C@](C)(C[C@@H](C)CN(C)[C@H](C)[C@@H](O)[C@]1(C)O)[C@H](O[C@@H]1O[C@H](C)C[C@H](N(C)C)[C@H]1O)[C@H]2C
class 1

State whether 2 µg/mL exceeds MIC recorded for CC[C@H]1OC(=O)[C@H](C)[C@H]2OC3(CCN(C(=O)c4ccco4)CC3)O[C@](C)(C[C@@H](C)CN[C@H](C)[C@@H](O)[C@]1(C)O)[C@H](O[C@@H]1O[C@H](C)C[C@H](N(C)C)[C@H]1O)[C@H]2C .
class 1
